molecular target: NMUR2 (neuromedin U 2 receptor) (Homo sapiens, UniProt Q9GZQ4); construct: expressed in transfected cells; host or cells: HEK293 (HEK-NMU2); assay: Calcium mobilization assay, HEK-NMU2 cells; type: cell-based; details: HEK293 cells expressing NMU2 receptor, NA = not active
Sequence (Q9GZQ4 whole entry): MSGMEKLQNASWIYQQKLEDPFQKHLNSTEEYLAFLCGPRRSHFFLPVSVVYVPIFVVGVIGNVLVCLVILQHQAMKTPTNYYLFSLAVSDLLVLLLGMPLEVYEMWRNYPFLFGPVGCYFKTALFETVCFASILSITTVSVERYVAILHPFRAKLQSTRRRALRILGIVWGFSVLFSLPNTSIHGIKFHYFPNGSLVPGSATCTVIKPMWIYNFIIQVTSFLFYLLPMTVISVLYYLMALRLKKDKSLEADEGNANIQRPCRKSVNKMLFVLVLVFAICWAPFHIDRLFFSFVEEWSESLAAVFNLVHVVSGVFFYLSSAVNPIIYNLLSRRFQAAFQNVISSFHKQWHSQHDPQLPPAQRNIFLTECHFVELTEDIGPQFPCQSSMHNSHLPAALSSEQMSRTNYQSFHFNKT
Where a SMILES comes first, the peptide text is derived from it. [ ]: non-standard residue; d: D form. Tic = O=C(O)[C@@H]1Cc2ccccc2CN1; Aib = CC(C)(N)C(=O)O; Ahx = NCCCCCC(=O)O
measurement.name: EC50 (nM)
Provide the reading as a plain figure in nM.

[
  {
    "molecule": "CC(C)C[C@H](NC(=O)[C@H](Cc1ccccc1)NC(=O)C(C)(C)N)C(=O)N[C@@H](Cc1ccccc1)C(=O)N[C@@H](CCCNC(=N)N)C(=O)N1CCC[C@H]1C(=O)N[C@@H](CCCNC(=N)N)C(=O)N[C@@H](CC(N)=O)C(N)=O [Peptide M2, Aib-FL-Phe-Arg-Pro-R-Asn] (H-[Aib]FLFRPRN-NH2)",
    "measurement.name": "EC50",
    "value.measured": 0.21
  },
  {
    "molecule": "CC(C)C[C@H](NC(=O)[C@H](Cc1ccccc1)NC(=O)CCCCCNC(=O)[C@@H](N)CS)C(=O)N[C@@H](Cc1ccccc1)C(=O)N[C@@H](CCCNC(=N)N)C(=O)N1Cc2ccccc2C[C@H]1C(=O)N[C@@H](CCCNC(=N)N)C(=O)N[C@@H](CC(N)=O)C(=O)NCCCCCC(=O)N[C@@H](CS)C(N)=O [NM10, C-Ahx-FL-Phe-Arg-Tic-R-Asn-Ahx-C] (H-C[Ahx]FLFR[Tic]RN[Ahx]C-NH2)",
    "measurement.name": "EC50",
    "value.measured": 2690
  }
]

Moving on to the next molecule.
INPUT: Suppose we examine the molecule CC(C)C[C@H](NC(=O)[C@H](Cc1ccccc1)NC(=O)CCCCCNC(=O)[C@@H](N)CS)C(=O)N[C@@H](Cc1ccccc1)C(=O)N[C@@H](CCCNC(=N)N)C(=O)N1CCC[C@H]1C(=O)N[C@@H](CCCNC(=N)N)C(=O)N[C@@H](CC(N)=O)C(=O)NCCCCCC(=O)N[C@@H](CS)C(N)=O [Peptide M8, C-Ahx-FL-Phe-Arg-Pro-R-Asn-Ahx-C] (H-C[Ahx]FLFRPRN[Ahx]C-NH2) ; what EC50 value has been reported?
OUTPUT: 240

Data provenance: patent US10155798B2
